Taken from the Human Domainome abundance scans (Beltran et al. 2025).

B1: Cold shock protein CspB, residues 1 to 66; numbered along this chain, P41016 (parent)
chain: MQRGKVKWFNNEKGYGFIEVEGGSDVFVHFTAIQGEGFKTLEEGQEVSFEIVQGNRGPQAANVVKL

Variants of: B1
protocol-details: abundance fitness (aPCA) (normalised: wild type 0, dead -1); higher = more abundant; growth selection in yeast, the domain comes from the species named
condition-parameters: Bacillus caldolyticus
Classification by abundance fitness follows these ranges: 1 = under -0.1, 2 = from -0.1 up to -0.02, 3 = -0.02 and over

Below, 5 variants whose answers are already recorded.
- T40D: 1
- Y15W: 3
- V28T: 2
- V28C: 3
- E19K: 3

Q: Each variant maps to one class by abundance fitness. Which class for "H29Y" ?
A: 1

Q: Please report the category associated with "Q45E" , nothing else.
A: 3

Q: Given "K39A" , name the class its abundance fitness places it in.
A: 3

Q: Please classify: "F27S"
A: 1

Q: Hi, small favor: classify "L41N" by its abundance fitness when you get a moment.
A: 1
